# Measured on: DNA dC->dU-editing enzyme APOBEC-3F (Homo sapiens) (UniProt Q8IUX4)
# Sequence (Q8IUX4 whole entry, looked up): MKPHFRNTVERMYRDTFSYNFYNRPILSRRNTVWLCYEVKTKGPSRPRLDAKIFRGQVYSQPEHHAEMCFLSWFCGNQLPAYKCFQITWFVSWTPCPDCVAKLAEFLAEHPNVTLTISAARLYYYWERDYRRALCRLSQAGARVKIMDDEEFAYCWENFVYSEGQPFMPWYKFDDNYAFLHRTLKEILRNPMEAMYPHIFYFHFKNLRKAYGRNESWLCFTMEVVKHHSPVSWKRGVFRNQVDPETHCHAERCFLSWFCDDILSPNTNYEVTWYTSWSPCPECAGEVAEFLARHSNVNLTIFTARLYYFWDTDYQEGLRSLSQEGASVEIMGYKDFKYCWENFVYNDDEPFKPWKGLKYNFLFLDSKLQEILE
# Procedure text: qHTS for inhibitors of Vif-A3F interactions: Cherry picks counterscreen; note: nearly all actives have a fitted effect of over 65% in size; note: potency is the fitted concentration of half-maximal effect
# Measurement setup: HeLa A3F-eYFP/Vif cells, eYFP fluorescence, 24 h; series mostly up to 46.1 µM
# From the text: The recent discovery and characterization of host restriction factors, which provide a potent defense to invading retroviruses, has provided new targets for antiviral drug development. […] In the presence of an inhibitor, it is expected that Vif will be unable to degrade A3G-eYFP and/or A3F-eYFP, resulting in an increase in yellow fluorescence. […]
Out of some 2,100 compounds screened, about 1,100 (52%) were called active. About 29% were inconclusive and are not listed. The set was probably picked from earlier hits. Some of the results follow.
Potency values, listed per item
Reported property: Potency

COc1ccc(NC(=O)c2sc3nc(-c4cccnc4)ccc3c2N)cc1OC: 5.8 µM (active)
CN1CCCc2cc(/C=C/c3ccnc4ccccc34)ccc21: 2.59 µM (active)
Cc1ccccc1OCCc1c(C)[nH]c(=S)[nH]c1=O: 2.23 µM (active)
COc1ccccc1OCC(=O)NNC(=O)Nc1ccc(Cl)cc1: 15.8 µM (active)

====

# Measured on: DNA dC->dU-editing enzyme APOBEC-3F (Homo sapiens) (UniProt Q8IUX4)
# Procedure text: qHTS for inhibitors of Vif-A3F interactions: Cherry picks counterscreen; note: nearly all actives have a fitted effect of over 65% in size
# Measurement setup: HeLa A3F-eYFP/Vif cells, eYFP fluorescence, 24 h; series mostly up to 46.1 µM
The campaign covered roughly 2,100 compounds. About 1,100 (52%) were called active. About 29% were inconclusive and are not listed. The call rests on the fitted dose curve; in most records, active means well fitted inhibition curve with a large enough effect; inconclusive means small, poorly fitted or top-dose-only effect; inactive means no such curve, though single readings can be large or run the other way. So high a share suggests a set chosen from earlier hits. This is one part of the list.
Possible outcomes: YES for active, NO for inactive

COc1ccc(/C=C2\Oc3cc(OC(=O)N4CCOCC4)ccc3C2=O)c(OC)c1: NO
O=C(NC1C/C(=N/O)c2cc3c(cc21)OCO3)C(F)(F)F (configuration not stated): NO
Cc1ccc2oc(/N=C(\N)NC(=O)C(C)(C)C)nc2c1: NO
COc1cc(OC)c(OC)cc1/C=C1\Oc2cc(OCC(=O)N3Cc4ccccc4C[C@H]3C(=O)O)ccc2C1=O: YES
COC(=O)Cn1c(C)c(/C=C/c2cc[n+](C)cc2)c2ccccc21: YES
Cc1ccc(Cc2c(C3CCCCC3)nc3ccc(C)cn23)cc1: NO
COc1ccccc1NS(=O)(=O)c1cc([N+](=O)[O-])ccc1N/N=C/c1c(C)[nH]c2ccccc12: YES

====

# Measured on: DNA dC->dU-editing enzyme APOBEC-3F (Homo sapiens)
# Procedure text: qHTS for inhibitors of Vif-A3F interactions: Cherry picks counterscreen; note: nearly all actives have a fitted effect of over 65% in size
# Measurement setup: HeLa A3F-eYFP/Vif cells, eYFP fluorescence, 24 h; series mostly up to 46.1 µM
Out of some 2,100 compounds screened, about 1,100 (52%) were called active. Another 29% or so got no clear call; they are omitted. Calls follow the shape of the dose curve; as a rule, active = well fitted inhibition curve with a large enough effect; inconclusive = small, poorly fitted or top-dose-only effect; inactive = no such curve, though single readings can be large or run the other way. So high a share suggests a set chosen from earlier hits. This is one part of the list.
Possible outcomes: label 1 for active, label 0 for inactive

O=C(c1ccccc1)C1C(=O)c2ccccc2C1=O: label 0
COc1ccc2o/c(=N/NC(=O)c3cccs3)c(C(N)=O)cc2c1: label 1
COc1cccc(/C(O)=C/c2nc3ccc(C(=O)NCCc4cccc(C)c4)cc3[nH]c2=O)c1: label 1
COC(=O)c1cccc(NS(=O)(=O)c2ccc(OC)cc2)c1C: label 1
CCOC(=S)SCC(=O)N1CCc2cc(OC)ccc2C1C1C(=O)CCCC1=O (stereo not drawn): label 1
CC1(C)CCN2CCC(C)(C)c3c(O)ccc1c32: label 1
COc1ccc(S(=O)(=O)Nc2cccc3ccccc23)cc1: label 1
CC1=CC(C)(C)NC(=S)N1c1ccc2ccccc2c1: label 0
CN1/C(=C\C=C2/SC(=S)NC2=O)C(C)(C)c2ccccc21: label 1
Nc1c(C(=O)C2CC2)sc2nc(-c3cccs3)cc(C(F)(F)F)c12: label 1
COc1cc(/C=C/C(=O)c2ccc3c(c2)OCCO3)cc(Br)c1OCC(=O)N(C)C: label 1
NN=C1c2ccccc2C(=O)C1C(=O)C(c1ccccc1)c1ccccc1 (stereo not drawn): label 1
CC(C)(C)C(=O)c1sc2nc(-c3cccs3)cc(C(F)(F)F)c2c1N: label 1
Cc1cccc(N2CCN(C(=O)c3ccncc3)CC2)c1C: label 1
S=C(NN=Cc1ccccn1)Nc1ccccn1: label 0
Cc1ccc2nc(C)c(C(=O)NN=C3CCCCCC3)n2c1: label 0
CC(=O)c1sc2nc(-c3cccs3)cc(C(F)(F)F)c2c1N: label 1
COc1cccc(/C(O)=C/c2nc3ccc(C(=O)NCCc4ccc(Cl)cc4)cc3[nH]c2=O)c1: label 1

====

# Measured on: DNA dC->dU-editing enzyme APOBEC-3F (Homo sapiens) (UniProt Q8IUX4)
# Procedure text: qHTS for inhibitors of Vif-A3F interactions: Cherry picks counterscreen; note: nearly all actives have a fitted effect of over 65% in size
# Measurement setup: HeLa A3F-eYFP/Vif cells, eYFP fluorescence, 24 h; series mostly up to 46.1 µM
Screen size: about 2,100 compounds; about 1,100 (52%) were called active. About 29% were inconclusive and are not listed. Calls follow the shape of the dose curve; as a rule, active = well fitted inhibition curve with a large enough effect; inconclusive = small, poorly fitted or top-dose-only effect; inactive = no such curve, though single readings can be large or run the other way. So high a share suggests a set chosen from earlier hits. This is one part of the list.
Possible outcomes: 1 = active, 0 = inactive

Cc1nc2c3cc(F)ccc3n(Cc3ccccc3)c2s1: 1
CCC(C)Sc1cc(-c2nc3ccccn3c2NC2CCCCC2)ccc1OC (stereo not given): 0
CCSc1ncc(Cl)c(C(=O)N2CCN(c3ccccc3OC)CC2)n1: 1
O=C(O)CCCN1C(=O)/C(=C\C(Cl)=C\c2ccccc2)SC1=S: 1
N#CCSc1ccccc1NC(=O)COc1ccc(-c2nnco2)cc1: 1

====

Potency values, listed per item
# Measured on: DNA dC->dU-editing enzyme APOBEC-3F (Homo sapiens)
# Procedure text: qHTS for inhibitors of Vif-A3F interactions: Cherry picks counterscreen; note: nearly all actives have a fitted effect of over 65% in size; note: potency is the fitted concentration of half-maximal effect
# Measurement setup: HeLa A3F-eYFP/Vif cells, eYFP fluorescence, 24 h; series mostly up to 46.1 µM
About 1,100 (52%) of roughly 2,100 compounds were called active. Inconclusive results (about 29%) are left out. So high a share suggests a set chosen from earlier hits. The list shows a part of the results.
Reported property: Potency

CCOC(=O)c1[nH]c(C)c(C(=O)Nc2cc(OC)ccc2OC)c1C: 1.77 µM (active)
O=C(COC(=O)c1ccc(NS(=O)(=O)c2cccs2)cc1O)NCc1ccccc1: 4.44 µM (active)
O=C(N/N=C/c1ccsc1)c1cc(-c2cccs2)nc2ccccc12: 15.8 µM (active)
Cc1ccc(C(=O)NN(C)c2nc3ccccc3nc2C(F)(F)F)cc1: 2.8 µM (active)
O=C(N/N=C/c1ccc2c(c1)OCO2)c1cc(-c2ccncc2)nc2ccccc12: 6.27 µM (active)

====

# Measured on: DNA dC->dU-editing enzyme APOBEC-3F (Homo sapiens) (UniProt Q8IUX4)
# Procedure text: qHTS for inhibitors of Vif-A3F interactions: Cherry picks counterscreen; note: nearly all actives have a fitted effect of over 65% in size
# Measurement setup: HeLa A3F-eYFP/Vif cells, eYFP fluorescence, 24 h; series mostly up to 46.1 µM
In all, about 2,100 compounds went through this assay and about 1,100 (52%) were called active. About 29% were inconclusive and are not listed. Calls come from the whole dose curve; as a rule, active = well fitted inhibition curve with a large enough effect; inconclusive = small, poorly fitted or top-dose-only effect; inactive = no such curve, though single readings can be large or run the other way. So high a share suggests a set chosen from earlier hits. Some of the results follow.
Possible outcomes: active, inactive

Nc1c(C(=O)N/N=C/c2ccc(F)cc2)oc2nc(-c3ccccc3)cc(-c3ccco3)c12: active
O=C(NNc1ncc(C(F)(F)F)cc1Cl)c1c(Cl)cccc1Cl: active
S=C(NCc1ccco1)Nc1ccc(Cl)cn1: inactive
CC(=O)c1cccc(-c2ccnc3c2CC(C(=O)NCC2CC2)O3)c1 (centres undefined): active
CC(=O)/C(N=Nc1cc(C)ccc1O)=C(\C)O: active
Cc1ccccc1NC(=O)CSC1=C(C#N)C(c2ccsc2)CC(=O)N1 (centres undefined): inactive
C=CCN1C(=O)c2cccc3c(N4CCCCC4)ccc(c23)C1=O: active
Nc1c(C(=O)N/N=C/c2cccnc2)oc2nc(-c3ccccc3)cc(-c3ccco3)c12: active
CCOc1ccc(C(=O)COC(=O)Cc2n[nH]c(=O)c3ccccc23)cc1: active
O=C(Cc1n[nH]c(=O)c2ccccc12)OCC(=O)c1ccc2c(c1)OCCO2: active
C=CCSc1nc2ccccc2n1C(=O)/C=C/c1cc(OC)c(OC)c(OC)c1: active
CCSc1nc2ccccc2n1C(=O)/C=C/c1ccc(OC)c(OC)c1: active
COc1cc(C(=O)Nc2ccc3c(c2)ncn3C)cc(OC)c1OC: active
O=C(Cc1nc2ccccc2[nH]c1=O)c1ccc(Cl)cc1: active
N#CC1=C(N)Oc2ccc3ccccc3c2C1c1cccnc1 (centres undefined): active
CC1(C)Cc2ccccc2C2CC(O)C(=O)N21 (centres undefined): active
CCOc1ccc(NC(=O)N2CC=C(c3c[nH]c4ccccc34)CC2)cc1: active
COc1cc(C(=O)N/N=C(\C)c2ccccn2)cc(OC)c1OC: active
COc1ccccc1C(=O)N1CCN(c2cccc(Cl)c2)CC1: active
C=CCOc1c(Cl)cc(C(=S)N2CCCC2)cc1OCC: active
CCCC(=O)NC1=C(Cl)C(=O)c2ccccc2C1=O: inactive
COc1ccccc1CNc1nc2ccc(C)cc2n2nnnc12: active
Cc1ccc(CNC(=O)C2CC(c3cc(C(F)(F)F)cc(C(F)(F)F)c3)=NO2)o1 (centres undefined): active
CCN1C(=S)SC(=O)C1=C1C=C(C)N(Cc2ccco2)C(C)=C1: active
CC1=C(n2nnc3ccccc32)C(c2ccccc2)C(C#N)=C(N)O1 (centres undefined): inactive
Cc1c(/C=N\NC(=O)c2cc3ccccc3o2)c2ccccc2n1C: active
O=C(NCCc1ccccc1Cl)c1ccc(Cn2c(=O)c3cccn3c3cccnc32)cc1: active
C/C(=N\Nc1nc(C)cc(-c2ccccc2)n1)c1ccc(F)cc1: inactive
Cc1cc(/C=N/NC(=O)c2cc3ccccc3o2)c(C)n1C: inactive
CN(C)c1ccc2nc3c(=O)[nH]c(=O)nc-3n(CC(O)C(O)C(O)CO)c2c1 (centres undefined): active
COc1cccc(C2=CC(c3ccccc3)n3nnnc3N2)c1 (centres undefined): active
Cc1ccc(N2C(=O)c3cccc4c(N5CCN(C)CC5)ccc(c34)C2=O)c2cccnc12: active
COc1ccc(OC)c(C2C=C(c3ccc(C)c(C)c3)Nc3nnnn32)c1 (centres undefined): active
CCC[N+](C)(C)c1ccc(/C=C/c2ccncc2)cc1: active
O=C(O)c1ccccc1/C=N/Nc1ccc(S(=O)(=O)N2CCOCC2)cc1[N+](=O)[O-]: inactive
CCN1C/C(=C\c2cccc([N+](=O)[O-])c2)C(=O)/C(=C/c2cccc([N+](=O)[O-])c2)C1: active
O=C1c2cccc3c(N4CCCCC4)ccc(c23)C(=O)N1c1ccccc1O: inactive
Cc1ccc(-c2nc(-c3cc4cccc(OCc5cccc(F)c5)c4oc3=O)no2)cc1: active
COc1cc(C(=O)N/N=C/C2CC=CCC2)cc(OC)c1OC (centres undefined): inactive
